Please provide measured abundance fitness for the entries that follow.
B1: Steroid hormone receptor ERR2, residues 100 to 176; numbered along this chain, O95718 (parent)
chain: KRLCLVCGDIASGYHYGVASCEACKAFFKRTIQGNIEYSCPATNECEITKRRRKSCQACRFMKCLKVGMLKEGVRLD

Variants of: B1
Assay: abundance fitness (aPCA) (normalised: wild type 0, dead -1); higher = more abundant; growth selection in yeast, the domain comes from the species named
Conditions: Homo sapiens
One number for each entry.

Example entries begin here.
- C4H: -0.956
- C46L: -0.803

Can you give me abundance fitness for all of these, one by one?
1. C40N
2. S39C

[-0.586, 0.189]

Please state abundance fitness for every variant in the list that follows.
1. I36T
2. G34R
3. A11Y
4. C46I
5. R53P
6. R53E
7. N44L
8. H15L

1: -0.288; 2: -0.033; 3: -0.128; 4: -1.06; 5: -0.069; 6: 0.073; 7: -0.278; 8: -0.223

Please look at the items below and tell me abundance fitness for each one, in order.
1. C24V
2. V6H
3. A58F

-0.906
-1.18
-0.377

Can you give me abundance fitness for all of these, one by one?
1. L5W
2. N44D

1. -0.332
2. 0.119
